system: TLR2 induced IL-6 in peripheral blood mononuclear cells (PBMCs); assay: PBMC TLR2 Induced IL-6 Assay; type: cell-based, human; details: Homo sapiens, PBMC, 5 h, human PBMCs, 10 μg/ml lipoteichoic acid for 5 hours, IL-6 by ELISA; EC50 determinations are indicated with an asterisk; read-out: Cell EC50 (asterisk)
Documented log10 of EC50 across a set of compounds
Hi team, quick reminder: these entries are log10 of EC50 (µM).

Some compounds with known log10 of EC50 results, for comparison:
compound	endpoint_name	value_reported
Cc1cn2nccc2cc1Nc1cc(NC(C)C)c(C(=O)NC[C@@H](F)C(C)(C)O)cn1 [Example 487]	log10 of EC50	-0.20
CC(C)Nc1cc(Nc2ccc3cc(C#N)ccc3n2)ncc1C(=O)NC[C@@H](F)C(C)(C)O [Example 480]	log10 of EC50	-0.06
Cc1cn2nccc2nc1Nc1cc(NC2CCOCC2)c(C(=O)NC[C@@H](F)C(C)(C)O)cn1 [Example 482]	log10 of EC50	-0.60
CC(C)(O)[C@H](F)CNC(=O)c1cnc(Nc2nc3ccnn3cc2F)cc1N[C@H]1CCC[C@H]1F [Example 488]	log10 of EC50	-0.72
CC(=O)N[C@H]1CC[C@H](NC(=O)c2cnc(Nc3ccc4ncsc4n3)cc2NC2CCOCC2)CC1 [Example 514]	log10 of EC50	-1.59

Note to self: log10 of EC50 recorded for CC(C)Nc1cc(Nc2ccc3ncsc3c2)ncc1C(=O)NC1CCc2[nH]ncc2C1 (centres unmarked) [Example 494] was -0.68

Note to self: log10 of EC50 recorded for CC(C)Nc1cc(Nc2ccc3ncsc3c2)ncc1C(=O)N[C@H]1CC[C@H]([N+](=O)[O-])CC1 [Example 523] was -0.44

Note to self: log10 of EC50 recorded for CC(C)Nc1cc(Nc2cc3nccnc3cc2F)ncc1C(=O)NC[C@@H](F)C(C)(C)O [Example 501] was -0.68

----------
Here's a batch of molecules along with measured pIC50 for IRAK4 (Homo sapiens (Human), UniProt Q9NWZ3).
Bear in mind: pIC50 is minus log10 of a mol/L concentration; give just that figure.

molecule	target	endpoint_name	value_reported
CC(C)(O)[C@H](F)CNC(=O)c1cnc(Nc2cc3scnc3cc2F)cc1NCC(F)(F)F	IRAK4 (Homo sapiens (Human), UniProt Q9NWZ3)	pIC50	8.47
CC(C)(O)[C@H](F)CNC(=O)c1cnc(Nc2ccc3nonc3c2)cc1N[C@@H]1CCCC1F (stereo partly drawn) [Example 357]	IRAK4 (Homo sapiens (Human), UniProt Q9NWZ3)	pIC50	8.14
CC(C)(O)[C@H](F)CNC(=O)c1cnc(Nc2ccn3nccc3n2)cc1NC1CCC(F)C1 (stereo partly drawn) [Example 254]	IRAK4 (Homo sapiens (Human), UniProt Q9NWZ3)	pIC50	8.60
CC(C)Nc1cc(Nc2ccc3ncsc3c2)ncc1C(=O)NCC[C@@H](C)NC(=O)CC1CCCCC1(F)F (stereo partly drawn)	IRAK4 (Homo sapiens (Human), UniProt Q9NWZ3)	pIC50	8.60

# lookup: CC(C)(O)[C@H](F)CNC(=O)c1cnc(Nc2ccc3ncsc3c2)cc1NC1CCC(F)C1 (single isomer, unassigned) on IRAK4 (Homo sapiens (Human), UniProt Q9NWZ3), pIC50 = 8.54

# lookup: `CC(C)(O)[C@H](F)CNC(=O)c1cnc(Nc2cnc3[nH]ccc3c2)cc1NC1CC1` on IRAK4 (Homo sapiens (Human), UniProt Q9NWZ3), pIC50 = 8.19

# lookup: `CC(C)(O)[C@H](F)CNC(=O)c1cnc(Nc2ccn3nccc3c2)cc1NCC1CC1` on IRAK4 (Homo sapiens (Human), UniProt Q9NWZ3), pIC50 = 7.94

# lookup: CC(C)(O)[C@H](F)CNC(=O)c1cnc(Nc2ccc3nccnc3c2)cc1NC1CC2CCC1C2 (stereo partly drawn) on IRAK4 (Homo sapiens (Human), UniProt Q9NWZ3), pIC50 = 8.72

# lookup: `CC(C)(O)[C@H](F)CNC(=O)c1cnc(Nc2cc3nccnc3cc2F)cc1NC1CCC1` on IRAK4 (Homo sapiens (Human), UniProt Q9NWZ3), pIC50 = 8.27

# lookup: `CC(C)Nc1cc(Nc2ccc3ncsc3c2)ncc1C(=O)NC1CCN(C(=O)c2cccnc2)CC1` on IRAK4 (Homo sapiens (Human), UniProt Q9NWZ3), pIC50 = 8.32
